Reference source: patent US20210253725A1

A collection of binders and their measured Cellular binding assay [RFU]
# tested_target: T1, CD134 expressed on the cell surface of HT1080_OX40 cells (human, UniProt P43489 29-277)
# T1 construct: whole, on cells; species not restated for the HT1080 transfectant
# T1 sequence (looked up): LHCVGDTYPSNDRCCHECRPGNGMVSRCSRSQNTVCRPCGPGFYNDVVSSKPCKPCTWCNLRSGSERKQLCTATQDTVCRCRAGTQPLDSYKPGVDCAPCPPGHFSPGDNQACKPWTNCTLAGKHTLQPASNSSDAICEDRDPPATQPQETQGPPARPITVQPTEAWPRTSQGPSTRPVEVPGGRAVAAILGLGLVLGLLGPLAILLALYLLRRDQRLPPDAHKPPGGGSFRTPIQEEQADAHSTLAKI
# procedure_summary: HT1080_OX40 cells, imaging; note: test concentration or dose not given here

Example entries begin here.
{"columns": ["binder", "Cellular binding assay [RFU]"],
 "data": [
  ["P018.S.12.A.A06 (antibody, V domains shown, V regions on human Ig constant parts; also called AB134_55) VH: QSVEESGGRLVTPGTPLTLTCTVSGFSLSSFAMTWVRQAPGKGLEWIGIISSSGTTYYASWAKGRFTISKTSTTVDLRITSPTTEDTATYFCASHYDDYGDSDALDPWGPGTLVTVSS VL: AAVMTQTPSPVSAAVGGTVTINCQASEDIYSNLAWFQQKPGQPPKLLIYRASTLASGVPSRFSGSGSGTEFTLTISGLQSDDAATYYCLGVDRHISDRAFGGGTEVVVK", "515 RFU"],
  ["P018.S.12.A.G02 (antibody, V domains shown, V regions on human Ig constant parts; also called AB134_84) VH: QSLEESGGRLVTPGTPLTLTCTASGFSLNMFYMIWVRQAPGKGLEWIGMIDSMGSAWYASWAKGRFTISKTSTAVALKITSPTTEDTATYFCARAINGDGAGDLWGQGTLVTVSS VL: DVVMTQTPASVSAAVGGTVTINCRASEKIDSFLAWYQQKPGQPPKLLIYGASELAPGVPSRFSGSGSGTDYTLTISALESADAATYYCQSTADGSDYVGTFGGGTEVVVK", "530 RFU"]
]}

As a next step, examine the binder that follows.
Give the reported value of Cellular binding assay [RFU] for this record: P018.S.12.A.D06 (antibody, V domains shown, V regions on human Ig constant parts; also called AB134_71) VH: QSVEESGGRLVTPGTPLTLTCTVSGFSLSSYDMSWVRQAPGKGLEWIGIIYVSGTTDYASWAKGRFTISKTSTTVDLKMTSLTTEDTATYFCARDIYVDEIGCFDLWGQGTLVTVSS VL: DILMTQTPASVEVAVGGTVTIKCQASQNIRTYLAWYQQKPGQPPKLLIYRASTLESGVPSRFKGSGSGIEFSLTISDLESADAATYYCQNYDGGSSTGFGGGTEVVVK
180 RFU
